Origin of the recorded values: patent US9708267B2

- Target: hPK, M2 (Homo sapiens, UniProt P14618)
- Sequence (P14618 whole entry): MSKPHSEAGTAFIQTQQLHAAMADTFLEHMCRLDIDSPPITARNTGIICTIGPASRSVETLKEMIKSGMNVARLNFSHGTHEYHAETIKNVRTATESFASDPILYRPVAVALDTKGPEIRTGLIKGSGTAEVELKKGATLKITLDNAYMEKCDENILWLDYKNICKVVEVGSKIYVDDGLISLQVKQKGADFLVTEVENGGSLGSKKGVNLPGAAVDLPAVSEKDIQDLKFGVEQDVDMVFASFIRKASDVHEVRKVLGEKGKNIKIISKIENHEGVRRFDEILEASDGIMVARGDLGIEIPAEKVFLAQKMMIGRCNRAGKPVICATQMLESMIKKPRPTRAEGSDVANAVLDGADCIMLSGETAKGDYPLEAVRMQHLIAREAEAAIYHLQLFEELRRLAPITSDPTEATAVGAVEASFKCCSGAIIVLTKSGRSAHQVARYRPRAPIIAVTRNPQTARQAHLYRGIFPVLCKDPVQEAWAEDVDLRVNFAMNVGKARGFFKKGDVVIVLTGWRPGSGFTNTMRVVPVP
- Assay details: luminescent pyruvate kinase-luciferase coupled assay (qHTS)
- Assay type: biochemical
- Condition context: Table 2; % activation at 57 μM of compound; mean of three replicate experiments; read-out: hPK, M2 Max. Res.
- Protocol: AC50 values were determined utilizing the luminescent pyruvate kinase-luciferase coupled assay (Inglese, J. et al, Quantitative high-throughput screening: a titration-based approach that efficiently identifies biological activities in large chemical libraries. Proc. Natl. Acad. Sci. U.S.A. 2006, 103, 11473-11478). […] Production of a luminescent signal based on the generation of ATP by pyruvate kinase was determined by using the ATP-dependent enzyme firefly luciferase. […]
# binning rule on activation at 57 µM: lo: < 40%; mid: ≥ 40% and < 90%; hi: ≥ 90%

Worked set:
| Compound structure string | Class |
| --- | --- |
| O=C1CCc2cc(S(=O)(=O)Nc3cccnc3)ccc2N1 | lo |
| O=C1CCc2cc(S(=O)(=O)Nc3cccc(-c4ccccc4)c3)ccc2N1 | lo |
| O=C1CCc2cc(S(=O)(=O)Nc3ccc4ccccc4c3)ccc2N1 | mid |
| O=C1CCc2cc(S(=O)(=O)Nc3ccc(Cl)cc3)ccc2N1 | hi |
| O=C1CCc2cc(S(=O)(=O)Nc3ccccc3F)ccc2N1 | mid |
| COc1ccc(NS(=O)(=O)c2ccc3c(c2)CCC(=O)N3)cc1 | mid |

Exercise: Field: class (activation at 57 µM) — entry: O=C1CCc2cc(S(=O)(=O)Nc3cccc(F)c3)ccc2N1
Key: hi

Exercise: Try this compound too: O=C1CCc2cc(S(=O)(=O)NCc3ccccc3)ccc2N1
Key: lo

Exercise: Try this compound too: O=C1CCc2cc(S(=O)(=O)Nc3cccc(C(F)(F)F)c3)ccc2N1
Key: hi

====

- Target: UniProtKB P14618
- Assay details: luminescent pyruvate kinase-luciferase coupled assay (qHTS)
- Format: biochemical
- Condition context: Table 3; 0.1 mM ADP, 0.5 mM PEP; mean of three replicate experiments; read-out: hPK, M2 AC50
Measured parameter: AC50 (nM)
Numeric answer only, unit nM assumed.

Exercise: Give recorded AC50 with UniProtKB P14618 for the following compound: Cc1ccc(NS(=O)(=O)c2cc3c(cc2F)NC(=O)CC3)cc1C
Key: 920

Exercise: Try this compound too: CNc1cc2c(cc1S(=O)(=O)Nc1ccc(C)c(C)c1)CCC(=O)N2
Key: 160

Exercise: Try this compound too: Cc1ccc(NS(=O)(=O)c2cc3c(cc2Cl)NC(=O)CO3)cc1C
Key: 580

Exercise: Try this compound too: Cc1ccc(NS(=O)(=O)c2cc3c(cc2Br)NC(=O)CO3)cc1C
Key: 18000

Exercise: Try this compound too: Cc1ccc(NS(=O)(=O)c2cc3c(cc2C)NC(=O)CO3)cc1C
Key: 1200

====

- Target: hPK, M2 (Homo sapiens, UniProt P14618)
- Assay details: luminescent pyruvate kinase-luciferase coupled assay (qHTS)
- Format: biochemical
- Condition context: Table 4; maximum response (activation); read-out: Max. Res.
Measured parameter: Emax

Worked examples, 3 compounds total:
| Compound | Measured parameter | Result |
| --- | --- | --- |
| Cc1ccc(NS(=O)(=O)c2cc3c(cc2N(C)CCN(C)C)NC(=O)CC3)cc1C | Emax | 70.5% |
| Cc1cc(NS(=O)(=O)c2cc3c(cc2N[C@@H](C)CO)NC(=O)CC3)ccc1F | Emax | 99% |
| Cc1ccc(NS(=O)(=O)c2cc3c(cc2NCC(C)(C)O)NC(=O)CC3)cc1C | Emax | 100% |

Exercise: Quick one: Emax for C[C@@H](CO)Nc1cc2c(cc1S(=O)(=O)Nc1ccc(F)c(Cl)c1)CCC(=O)N2 ?
Key: 95%

Exercise: Try this compound too: Cc1ccc(NS(=O)(=O)c2cc3c(cc2Cl)CCC(=O)N3)cc1Cl
Key: 112%

Exercise: Try this compound too: Cc1c(Cl)cccc1NS(=O)(=O)c1cc2c(cc1F)NC(=O)CC2
Key: 118%
